B1: TPR t1 (parent)
chain: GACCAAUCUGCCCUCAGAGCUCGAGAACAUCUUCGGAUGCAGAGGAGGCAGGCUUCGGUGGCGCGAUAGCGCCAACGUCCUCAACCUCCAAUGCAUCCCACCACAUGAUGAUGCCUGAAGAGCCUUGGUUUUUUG

variants of: B1; experiment: polymerase ribozyme fitness, log enrichment relative to wild type (log ratio); higher = more active; in vitro selection for triplet polymerase activity
Rule: T for polymerase ribozyme fitness (log ratio) not less than -2, F for anything less.

>  <variant.designation>
U14G G69A A90C U112A G128A

>  <classification>
F

$$$$
>  <variant.designation>
C11G G113A A119U G120A

>  <classification>
T

$$$$

Q. Item C49U C72U C89G with polymerase ribozyme fitness (log ratio) of -2 or above?
A. T

Q. Is reported polymerase ribozyme fitness (log ratio) greater than or equal to -2 here: G44U G71A U130A
A. F

Q. Could you tell me if the measured polymerase ribozyme fitness (log ratio) of A24G G44U C64U U133G reaches -2 or more?
A. F

Q. Say whether C8G U9C C56G G69A shows polymerase ribozyme fitness (log ratio) of -2 or more.
A. F

Q. In plain terms: is recorded polymerase ribozyme fitness (log ratio) at least -2 for C15U G52A C102G C124A ?
A. F

Q. Say whether C3G C94G C114U G128C shows polymerase ribozyme fitness (log ratio) of -2 or more.
A. F

Q. # check: polymerase ribozyme fitness (log ratio) of G48A G77U is greater than or equal to -2
A. F

Q. Is polymerase ribozyme fitness (log ratio) for C34A G69A at or above -2?
A. F

Q. Determine whether this variant has polymerase ribozyme fitness (log ratio) no lower than -2: U38A G42U G63C C79U
A. F

Just for reference, the RNAGym collection of RNA variant scans (doi:10.1073/pnas.2313332121) is where these values come from.
